Target: T1, human cytomegalovirus (CMV), NLV peptide peptide on HLA-A*02:01 (human)
T1 peptide: NLVPMVATV
Assay: data from [33]; method not given; soluble, other
VALUE KIND: pKd
On this scale, pKd is minus log10 of a concentration expressed in M (mol/L).

Ask: Requested read-out: pKd. Entry: C7 (TCR) alpha TRAV24*01 CDR3: AFITGNQFY beta TRBV7-2*02 CDR3: ASSQTQLWETQY
Reply: 5.29

Ref: paper PMC7793522
